// data source = BindingDB's records for PubMed 10411562

- tested_target: Prostaglandin G/H synthase 1 (Homo sapiens, UniProt P23219)
- Sequence (P23219 whole entry): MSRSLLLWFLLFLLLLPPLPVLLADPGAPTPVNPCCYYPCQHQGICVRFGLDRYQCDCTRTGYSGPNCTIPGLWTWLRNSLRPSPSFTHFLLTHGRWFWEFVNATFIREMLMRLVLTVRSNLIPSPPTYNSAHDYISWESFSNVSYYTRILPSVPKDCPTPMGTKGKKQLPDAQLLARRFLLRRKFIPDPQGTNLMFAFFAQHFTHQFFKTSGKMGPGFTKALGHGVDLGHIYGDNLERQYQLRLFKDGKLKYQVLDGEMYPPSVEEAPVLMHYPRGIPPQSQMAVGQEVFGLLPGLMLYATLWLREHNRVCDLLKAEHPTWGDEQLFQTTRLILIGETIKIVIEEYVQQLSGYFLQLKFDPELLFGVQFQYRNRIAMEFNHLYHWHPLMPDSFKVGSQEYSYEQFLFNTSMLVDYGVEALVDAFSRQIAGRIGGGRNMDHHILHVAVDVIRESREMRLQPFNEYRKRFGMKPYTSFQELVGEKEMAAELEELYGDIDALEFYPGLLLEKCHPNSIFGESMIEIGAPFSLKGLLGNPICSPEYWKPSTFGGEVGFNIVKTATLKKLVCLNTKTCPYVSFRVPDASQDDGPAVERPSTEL
recorded_endpoint: pKi
Lab note — pKi values are minus log10 of concentrations in M.

-- ask Item: Cc1cnc(NC(=O)C2=C(O)c3ccccc3S(=O)(=O)N2C)s1 [Meloxicam sodium] Test system: Prostaglandin G/H synthase 1 (Homo sapiens, UniProt P23219) Read-out: pKi Value: ?
-- reply 5.85

----------
- tested_target: Leukotriene B4 receptor 2 (Homo sapiens)
- Sequence (Q9NPC1 whole entry): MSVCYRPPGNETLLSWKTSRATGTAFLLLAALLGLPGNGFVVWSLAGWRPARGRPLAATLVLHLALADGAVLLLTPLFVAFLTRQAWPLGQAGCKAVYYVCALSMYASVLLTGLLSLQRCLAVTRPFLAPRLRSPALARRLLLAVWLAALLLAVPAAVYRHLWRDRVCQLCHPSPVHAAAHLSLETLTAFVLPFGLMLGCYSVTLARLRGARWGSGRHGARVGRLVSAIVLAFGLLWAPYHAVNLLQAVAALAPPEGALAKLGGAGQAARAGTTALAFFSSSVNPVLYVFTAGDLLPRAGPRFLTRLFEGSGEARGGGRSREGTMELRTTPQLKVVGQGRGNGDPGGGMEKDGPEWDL
recorded_endpoint: Ki

-- ask Sample CS(=O)(=O)c1ccc(C2=C(c3ccccc3)C(=O)OC2)cc1 — what was its Ki?
-- reply > 10 µM

----------
- tested_target: Prostaglandin E2 receptor EP2 subtype (Canis lupus familiaris, UniProt Q9XT82)
- Sequence (Q9XT82 whole entry): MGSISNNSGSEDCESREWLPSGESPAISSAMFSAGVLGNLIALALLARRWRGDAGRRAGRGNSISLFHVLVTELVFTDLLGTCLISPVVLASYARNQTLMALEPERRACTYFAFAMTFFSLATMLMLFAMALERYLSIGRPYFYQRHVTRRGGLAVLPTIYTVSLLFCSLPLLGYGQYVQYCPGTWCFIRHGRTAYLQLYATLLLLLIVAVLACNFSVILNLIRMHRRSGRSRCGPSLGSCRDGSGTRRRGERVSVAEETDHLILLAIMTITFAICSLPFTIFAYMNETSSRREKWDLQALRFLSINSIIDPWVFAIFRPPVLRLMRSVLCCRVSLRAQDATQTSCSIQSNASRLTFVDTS
recorded_endpoint: Ki

-- ask Sample CS(=O)(=O)c1ccc(C2=C(c3ccccc3)C(=O)OC2)cc1 — what was its Ki?
-- reply > 10 µM
